# targetOrTestSystem: Protein farnesyltransferase (Sus scrofa)
# testProtocol: In vitro activity against Protein farnesyltransferase
# measurementContext: read-out: I50
propertyMeasured: IC50 (µM)

CSCC[C@@H](NC(=O)[C@@H](NC(=O)[C@@H](NC(=O)CC(=O)N(O)C/C=C(\C)CC/C=C(\C)CCC=C(C)C)C(C)C)C(C)C)C(=O)O :: 30.5

(A) CC(C)=CCC/C(C)=C/CC/C(C)=C/CN(O)C(=O)CCC(=O)N[C@H](C(=O)N[C@@H](CC(C)C)C(=O)N[C@@H](CO)C(=O)O)C(C)C
(B) CSCC[C@H](NC(=O)[C@@H](NC(=O)[C@@H](NC(=O)CC(=O)N(O)C/C=C(\C)CC/C=C(\C)CCC=C(C)C)C(C)C)C(C)C)C(=O)O
(C) CSCC[C@H](NC(=O)[C@@H](NC(=O)[C@@H](NC(=O)CC(=O)N(O)CC/C=C(\C)CC/C=C(\C)CCC=C(C)C)C(C)C)C(C)C)C(=O)O
### Prompt Sort the 3 compounds by IC50; largest first, smallest last. Your answer should be the labels, listed in the requested order.
### Response A, C, B
(A: 42.5 µM, C: 5.6 µM, B: 0.33 µM)
